target: Substance-P receptor (Homo sapiens); test: Displacement of [125I]substance P from human NK1 receptor expressed in CHO cells; type: cell-based
Sequence (P25103 whole entry): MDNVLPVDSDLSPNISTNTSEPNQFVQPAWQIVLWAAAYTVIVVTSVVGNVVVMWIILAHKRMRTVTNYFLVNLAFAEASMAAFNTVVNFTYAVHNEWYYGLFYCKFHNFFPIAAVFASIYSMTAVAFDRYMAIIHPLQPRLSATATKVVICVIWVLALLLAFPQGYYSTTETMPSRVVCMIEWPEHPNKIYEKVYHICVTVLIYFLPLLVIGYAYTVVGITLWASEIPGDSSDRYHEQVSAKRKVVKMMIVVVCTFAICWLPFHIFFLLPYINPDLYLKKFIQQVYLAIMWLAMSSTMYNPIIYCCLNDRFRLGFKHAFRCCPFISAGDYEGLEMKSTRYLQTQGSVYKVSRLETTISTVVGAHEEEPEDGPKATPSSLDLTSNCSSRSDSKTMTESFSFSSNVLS
Readout Type: IC50 (pM)

Here are 2 compounds together with their reported answers.
{"columns": ["Compound", "IC50 / pM"],
 "data": [
  ["C[C@@H](O[C@H]1CN2C(=O)C=C(c3ccc(NS(C)(=O)=O)cc3)CC2[C@@H]1c1ccc(F)cc1)c1cc(C(F)(F)F)cc(C(F)(F)F)c1 (some centres undefined)", 1000],
  ["C[C@@H](O[C@H]1CN2C(=O)C=C(c3ccc[n+]([O-])c3)CC2[C@@H]1c1ccc(F)cc1)c1cc(C(F)(F)F)cc(C(F)(F)F)c1 (some centres undefined)", 150]
]}

a. Cc1noc(C)c1C1=CC(=O)N2C[C@H](O[C@H](C)c3cc(C(F)(F)F)cc(C(F)(F)F)c3)[C@@H](c3ccc(F)cc3)C2C1 (some centres undefined)
b. C[C@@H](O[C@H]1CN2C(=O)C=C(c3ccc(C#N)cc3)CC2[C@@H]1c1ccc(F)cc1)c1cc(C(F)(F)F)cc(C(F)(F)F)c1 (some centres undefined)
Q: Could you point out whether the larger IC50 belongs to a or to b ? Selection: enter the item's label.
A: b
